Test system: human factor IXa (Homo sapiens (Human), UniProt P00740)
Sequence (P00740 227-461): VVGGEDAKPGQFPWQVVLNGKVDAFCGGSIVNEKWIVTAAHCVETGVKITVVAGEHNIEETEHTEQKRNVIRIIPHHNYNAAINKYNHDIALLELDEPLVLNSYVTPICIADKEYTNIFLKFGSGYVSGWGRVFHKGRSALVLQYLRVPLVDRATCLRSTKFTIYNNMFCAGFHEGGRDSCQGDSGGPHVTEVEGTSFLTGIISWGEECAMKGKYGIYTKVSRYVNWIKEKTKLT
Sequence (P00740 47-191 partner): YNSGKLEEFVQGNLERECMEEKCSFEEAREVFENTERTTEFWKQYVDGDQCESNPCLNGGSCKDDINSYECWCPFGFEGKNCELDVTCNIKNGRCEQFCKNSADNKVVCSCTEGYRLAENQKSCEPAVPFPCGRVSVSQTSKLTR
Experiment description: Determination of inhibitory activity against factor IXa (SPECTROFLUOR FIXa fluorogenic substrate enzyme assay)
Assay type: biochemical
Measurement setup: human factor IXa 2.0 μg/ml, SPECTROFLUOR FIXa 100 μM, 60 minutes at room temperature, pH 8.0; read-out: Factor IXa enzyme assay IC50 [micro M]
pIC50: −log10 of the molar value. Structures can show the parent of a compound that is named as a salt.
Recorded metric: pIC50

A selection of reference data follows.
Molecule | Observed
Cc1ccc(N2CCOC(C(O)C(=O)Nc3ccc(C(=N)N)cc3)C2=O)cc1 (stereo not shown) [Example 2, trifluoroacetate] | 7.52
N=C(N)c1ccc(NC(=O)[C@H](O)[C@H]2OCCN(c3cccc(NC(=O)CO)c3)C2=O)cc1 [Example 50, hydrochloride] | 7.70

[a] Cc1ccc(N2CCO[C@H]([C@@H](O)C(=O)Nc3ccc4c(N)nccc4c3)C2=O)cc1 [Example 62, hydrochloride]
[b] CC(=O)N1CCN(c2ccc(C)cc2)C(=O)C1C(O)C(=O)Nc1ccc2c(N)nccc2c1 (stereo not shown) [Example 109, trifluoroacetate]
Q. Lab note: check whether a or b has the lower measured pIC50. // output: label of the selected item
A. b

* * *

Test system: human factor IXa (Homo sapiens (Human))
Experiment description: Determination of inhibitory activity against factor IXa (SPECTROFLUOR FIXa fluorogenic substrate enzyme assay)
Type: biochemical
Measurement setup: human factor IXa 2.0 μg/ml, SPECTROFLUOR FIXa 100 μM, 60 minutes at room temperature, pH 8.0; read-out: Factor IXa enzyme assay IC50
Recorded metric: IC50 (nM)

[P] N#Cc1ccccc1N1CCO[C@H]([C@@H](O)C(=O)Nc2ccc3c(c2)CNC3=N)C1=O [Example aa142]
[Q] Nc1noc2cc(NC(=O)[C@H](O)[C@H]3OCCN(c4ccc(S(F)(F)(F)(F)F)cc4)C3=O)ccc12 [Example aa151]
[R] Nc1noc2cc(NC(=O)[C@H](O)[C@H]3OCCN(c4ccc(F)c(C(=O)N5CCOCC5)c4)C3=O)c(F)cc12 [Example aa152]
[S] N=C1NCc2cc(NC(=O)[C@H](O)[C@H]3OCCN(c4ccc(F)c(C(=O)N5CCOCC5)c4)C3=O)ccc21 [Example aa144]
Q. Order the entries by their reported IC50, beginning at the minimum. Present the labels in the sequence the task asks for.
A. S, P, Q, R
(S: 13 nM, P: 66 nM, Q: 380 nM, R: 1200 nM)

* * *

Test system: human factor IXa (Homo sapiens (Human), UniProt P00740)
Experiment description: Determination of inhibitory activity against factor IXa (SPECTROFLUOR FIXa fluorogenic substrate enzyme assay)
Format: biochemical
Measurement setup: human factor IXa 2.0 μg/ml, SPECTROFLUOR FIXa 100 μM, 60 minutes at room temperature, pH 8.0; read-out: Factor IXa enzyme assay IC50 [micro M]
Structures can show the parent of a compound that is named as a salt.
Recorded metric: IC50 (nM)

Molecule | Recorded metric | Observed
Cc1ccc(N2CCCO[C@H]([C@@H](O)C(=O)Nc3ccc(C(=N)N)cc3)C2=O)cc1 [Example 114, hydrochloride] | IC50 | 30

[P] CC(C)(C)c1ccc(N2CCO[C@H]([C@@H](O)C(=O)Nc3ccc(C(=N)N)cc3F)C2=O)cc1 [Example 67, acetate]
[Q] CS(=O)(=O)c1ccccc1-c1ccc(N2CCO[C@H]([C@@H](O)C(=O)Nc3ccc(C(=N)N)cc3)C2=O)cc1 [Example 105, hydrochloride]
[R] Cc1ccc(N2CCOC(C(O)C(=O)Nc3ccc4c(N)nccc4c3)C2=O)cc1 (centres unmarked) [Example 1, trifluoroacetate]
[S] N=C(N)c1ccc(NC(=O)[C@H](O)[C@H]2OCCN(c3ccc(C4CCCCC4)cc3)C2=O)cc1 [Example 15, hydrochloride]
Q. Sort the molecules on IC50; start with the lowest figure. Present the labels in the sequence the task asks for.
A. Q, S, R, P
